From: ChEMBL document CHEMBL1201862

- System: SNB-75
- protocol notes: NCI tumour cell line growth inhibition, 48 h
Active and inactive are the calls of the source. Cut-off read from the data, not from the text of the source: active = GI50 up to about 1.1 µM and inactive = higher.
Outcome codes: YES for active, NO for inactive

>>> print(df.to_string())
                                   molecule  answer_label
0                      OCCNc1ncnc2[nH]cnc12           YES
1    O=C(/C=C/c1cc(Cl)cc(Cl)c1O)c1cccc(O)c1            NO
2  CCC(=O)c1c(NOC2OC(COC(C)=O)C(OC(C)=O)C(OC(C)=O)C2OC(C)=O)nc(OC)n(C)c1=O (stereo not given)            NO
3  OCC1OC(c2n[nH]c3c(O)ncnc23)C(O)C1O (stereo not given)            NO
4  Sc1nn2c(COc3cccc(OCc4nnc5sc(S)nn45)c3)nnc2s1            NO
